Assay: Stability experiments under 25° C.±2° C. and 65% R.H±5% R.H
Conditions: month 3; 25° C./65% R.H
REPORTED_ENDPOINT: Content (%)
Give bare numbers, in %.

CC[C@@H]([C@H](C)OP(=O)([O-])[O-])n1ncn(-c2ccc(N3CCN(c4ccc(OC[C@@H]5CO[C@@](Cn6cncn6)(c6ccc(F)cc6F)C5)cc4)CC3)cc2)c1=O.O.O.O.O.O.[Na+].[Na+] [Comparative Example 9] :: 99.73
CC[C@@H]([C@H](C)OP(=O)(O)O)n1ncn(-c2ccc(N3CCN(c4ccc(OC[C@@H]5CO[C@@](Cn6cncn6)(c6ccc(F)cc6F)C5)cc4)CC3)cc2)c1=O.N=C(N)NCCC[C@H](N)C(=O)O [Comparative Example 5, Posaconazole Phosphate Monoarginine Salt] :: 99.79
CC[C@@H]([C@H](C)OP(=O)(O)O)n1ncn(-c2ccc(N3CCN(c4ccc(OC[C@@H]5CO[C@@](Cn6cncn6)(c6ccc(F)cc6F)C5)cc4)CC3)cc2)c1=O [Example 1, Posaconazole Phosphate Monocholinate] :: 99.87
CC[C@@H]([C@H](C)OP(=O)(O)O)n1ncn(-c2ccc(N3CCN(c4ccc(OC[C@@H]5CO[C@@](Cn6cncn6)(c6ccc(F)cc6F)C5)cc4)CC3)cc2)c1=O [Example 3] :: 99.87

Please examine the following record next.
Please fill in: Content reported for CCC(C(C)OP(=O)([O-])[O-])n1ncn(-c2ccc(N3CCN(c4ccc(OCC5COC(Cn6cncn6)(c6ccc(F)cc6F)C5)cc4)CC3)cc2)c1=O.C[N+](C)(C)CCO.C[N+](C)(C)CCO.O.O.O.O.O (centres unmarked) [Comparative Example 2] = 99.86

###

Test: Stability experiments under 25° C.±2° C. and 65% R.H±5% R.H
Details: month 6; 25° C./65% R.H
REPORTED_ENDPOINT: Content (%)
Give bare numbers, in %.

CC[C@@H]([C@H](C)OP(=O)([O-])[O-])n1ncn(-c2ccc(N3CCN(c4ccc(OC[C@@H]5CO[C@@](Cn6cncn6)(c6ccc(F)cc6F)C5)cc4)CC3)cc2)c1=O.C[N+](C)(C)CCO.C[N+](C)(C)CCO [Comparative Example 1, Posaconazole Phosphate Bicholinate] :: 99.81
CC[C@@H]([C@H](C)OP(=O)(O)O)n1ncn(-c2ccc(N3CCN(c4ccc(OC[C@@H]5CO[C@@](Cn6cncn6)(c6ccc(F)cc6F)C5)cc4)CC3)cc2)c1=O [Example 3] :: 99.87
CC[C@@H]([C@H](C)OP(=O)([O-])[O-])n1ncn(-c2ccc(N3CCN(c4ccc(OC[C@@H]5CO[C@@](Cn6cncn6)(c6ccc(F)cc6F)C5)cc4)CC3)cc2)c1=O.O.O.O.O.O.[Na+].[Na+] :: 99.68

Please examine the following record next.
Please fill in: Content reported for CC[C@@H]([C@H](C)OP(=O)(O)O)n1ncn(-c2ccc(N3CCN(c4ccc(OC[C@@H]5CO[C@@](Cn6cncn6)(c6ccc(F)cc6F)C5)cc4)CC3)cc2)c1=O [Example 1, Posaconazole Phosphate Monocholinate] = 99.87

###

Kindly state Related substance for each of the entries shown.
Assay: Stability experiments under 25° C.±2° C. and 65% R.H±5% R.H
Details: month 9; 25° C./65% R.H
Please answer in the form of a number followed by its unit of measurement.

CC[C@@H]([C@H](C)OP(=O)(O)O)n1ncn(-c2ccc(N3CCN(c4ccc(OC[C@@H]5CO[C@@](Cn6cncn6)(c6ccc(F)cc6F)C5)cc4)CC3)cc2)c1=O.CNC[C@H](O)[C@@H](O)[C@H](O)[C@H](O)CO [Comparative Example 4] :: 0.43%
CC[C@@H]([C@H](C)OP(=O)([O-])[O-])n1ncn(-c2ccc(N3CCN(c4ccc(OC[C@@H]5CO[C@@](Cn6cncn6)(c6ccc(F)cc6F)C5)cc4)CC3)cc2)c1=O.O.O.O.O.O.[Na+].[Na+] [Comparative Example 9] :: 0.49%

Look at each molecule and report its Related substance.
1. CCC(C(C)OP(=O)([O-])[O-])n1ncn(-c2ccc(N3CCN(c4ccc(OCC5COC(Cn6cncn6)(c6ccc(F)cc6F)C5)cc4)CC3)cc2)c1=O.C[N+](C)(C)CCO.C[N+](C)(C)CCO.O.O.O.O.O (stereo not shown) [Comparative Example 2]
2. CC[C@@H]([C@H](C)OP(=O)([O-])[O-])n1ncn(-c2ccc(N3CCN(c4ccc(OC[C@@H]5CO[C@@](Cn6cncn6)(c6ccc(F)cc6F)C5)cc4)CC3)cc2)c1=O.C[N+](C)(C)CCO.C[N+](C)(C)CCO [Comparative Example 1, Posaconazole Phosphate Bicholinate]

Result ::
["0.25%", "0.23%"]

Look at each molecule and report its Related substance.
1. CC[C@@H]([C@H](C)OP(=O)(O)O)n1ncn(-c2ccc(N3CCN(c4ccc(OC[C@@H]5CO[C@@](Cn6cncn6)(c6ccc(F)cc6F)C5)cc4)CC3)cc2)c1=O.N=C(N)NCCC[C@H](N)C(=O)O [Comparative Example 5, Posaconazole Phosphate Monoarginine Salt]
2. CC[C@@H]([C@H](C)OP(=O)(O)O)n1ncn(-c2ccc(N3CCN(c4ccc(OC[C@@H]5CO[C@@](Cn6cncn6)(c6ccc(F)cc6F)C5)cc4)CC3)cc2)c1=O [Example 3]
3. CC[C@@H]([C@H](C)OP(=O)(O)O)n1ncn(-c2ccc(N3CCN(c4ccc(OC[C@@H]5CO[C@@](Cn6cncn6)(c6ccc(F)cc6F)C5)cc4)CC3)cc2)c1=O [Example 1, Posaconazole Phosphate Monocholinate]

Result ::
["0.42%", "0.16%", "0.15%"]
